FYI, the data here is from ChEMBL document CHEMBL1201862.

Form field: GI50 (one value per entry).
# Test system: A549
# Method notes: NCI tumour cell line growth inhibition, 48 h
The source made the active and inactive calls. Rule as the data show it: active = GI50 up to about 1.1 µM and inactive = higher.
Quantity name: GI50

[[record]]
compound = "COc1ccc2c(-c3ccc(OCCN(C)C)cc3)c(Oc3ccccc3)c(=O)oc2c1"
test_value = "3.37 µM (inactive)"

[[record]]
compound = "CC(=O)Oc1c(OC(C)=O)c(-c2ccc(O)c(O)c2)c(O)c(O)c1-c1ccc(O)cc1"
test_value = "> 100 µM (inactive)"

[[record]]
compound = "O=C(O)c1cc(-c2ccccc2O)nc2ccccc12"
test_value = "> 100 µM (inactive)"

[[record]]
compound = "CC1(C)OCC(C(O)C2OC(C)(C)OC2/C=N\\O)O1 (stereo not drawn)"
test_value = "> 100 µM (inactive)"

[[record]]
compound = "O=C1CSC2(CC(/C=C/C=C/c3ccccc3)=NN2c2cccc(S(=O)(=O)O)c2)N1c1nc2ccccc2s1 (stereo not drawn)"
test_value = "50.8 µM (inactive)"

[[record]]
compound = "Cn1c(=O)nc2n(-c3ccc(O)cc3)c3ccccc3nc-2c1=O"
test_value = "36.7 µM (inactive)"

[[record]]
compound = "O=C1C=CC(=O)c2c1ccc1c3ccccc3n(-c3ccccc3)c21"
test_value = "20.5 µM (inactive)"

[[record]]
compound = "O=C1SC(c2ccccc2)(c2ccccc2)c2ccccc21"
test_value = "50.9 µM (inactive)"

[[record]]
compound = "COc1cc(/C=N/NC(=O)c2ccc(NC(C)=O)cc2OC)ccc1O"
test_value = "> 100 µM (inactive)"

[[record]]
compound = "OCC1CCCCN1Cc1nc2cc(Cl)ccc2[nH]1 (stereo not drawn)"
test_value = "> 100 µM (inactive)"

[[record]]
compound = "Cn1c(=O)c2c(nc(N)n2C2OC(CO)C(O)C2O)n(C)c1=O (stereo not drawn)"
test_value = "> 100 µM (inactive)"

[[record]]
compound = "CC1Cc2cc(O)ccc2C2[C@@H]1C1CC[C@H](O)[C@@]1(C)C[C@@H]2O[N+](=O)[O-] (stereo partly drawn)"
test_value = "11 µM (inactive)"

[[record]]
compound = "Cc1cn(CCCCCCOC(=O)NC(CCCNC(N)=O)C(=O)O)c(=O)[nH]c1=O (stereo not drawn)"
test_value = "> 100 µM (inactive)"


* * *

# Test system: SF-268
# Method notes: NCI tumour cell line growth inhibition, 48 h
The source made the active and inactive calls. Cut-off read from the data, not from the text of the source: active = GI50 up to about 1.1 µM and inactive = higher.
Labels: true = active, false = inactive

[[record]]
compound = "O=C(/C=C/c1ccc(-c2ccccc2)cc1)NCc1ccc(C(=O)NCc2ccccc2)cc1"
study_system = "SF-268"
category = "false"

[[record]]
compound = "CSCCC(NC(=O)C(Cc1c[nH]c2ccccc12)NC(=O)CCNC(=O)OC(C)(C)C)C(=O)NC(CC(=O)O)C(=O)NC(Cc1ccccc1)C(N)=O (stereo not drawn)"
study_system = "SF-268"
category = "false"

[[record]]
compound = "N#CNC(=N)NC(=O)/C=C/C=C/c1ccc(Cl)cc1"
study_system = "SF-268"
category = "false"

[[record]]
compound = "Cc1ccc(NC(=O)CC(=O)n2nc(-c3ccccc3)c(/N=N/c3ccccc3C(=O)O)c2-c2ccccc2)cc1"
study_system = "SF-268"
category = "false"

[[record]]
compound = "Nc1ccc(-c2nc3ccc(F)cc3s2)cc1"
study_system = "SF-268"
category = "false"

[[record]]
compound = "CC(C)OP(=O)(OC(C)C)/C(=N/Nc1ccc([N+](=O)[O-])cc1)NNC(=O)c1ccccc1"
study_system = "SF-268"
category = "false"

[[record]]
compound = "O=C(C/C(CCC(=O)N(Cc1ccccc1)Cc1ccccc1)=N/Nc1ccc([N+](=O)[O-])cc1[N+](=O)[O-])c1ccccc1"
study_system = "SF-268"
category = "false"

[[record]]
compound = "CC(C)[Si](OC1=C(C(=O)N(C)c2ccccc2Cl)CCC1)(C(C)C)C(C)C"
study_system = "SF-268"
category = "false"

[[record]]
compound = "CC1(C)C2CC3C(C)(C2)C31c1cc(Cl)ccc1N (stereo not drawn)"
study_system = "SF-268"
category = "false"

[[record]]
compound = "COC1=CC(=O)c2c(c(COC(C)=O)cn2C)C1=O"
study_system = "SF-268"
category = "true"

[[record]]
compound = "CC(C)(CN1CCCCC1)C(=O)/C=C/c1ccccc1"
study_system = "SF-268"
category = "false"

[[record]]
compound = "N#CCCN(C(=O)Nc1ccc(NC(=O)N(CCC#N)c2ccccc2)cc1)c1ccccc1"
study_system = "SF-268"
category = "false"

[[record]]
compound = "COC(=O)C1CCC2(CC1)NC(=O)NC2=O (stereo not drawn)"
study_system = "SF-268"
category = "false"

[[record]]
compound = "COC(=O)C1SC(N(C)c2ccccc2)=NC12c1ccccc1Nc1ccccc12 (stereo not drawn)"
study_system = "SF-268"
category = "false"

[[record]]
compound = "COC(=O)c1cc(=O)n(-c2ccc3nn(C)nc3c2)cc1C(=O)OC"
study_system = "SF-268"
category = "false"

[[record]]
compound = "O=C1NC(O)c2cc3ccccc3cc2O1 (stereo not drawn)"
study_system = "SF-268"
category = "false"

[[record]]
compound = "COC(=O)C1C(OCc2ccccc2)C2CCC1(OC)C=C2C (stereo not drawn)"
study_system = "SF-268"
category = "false"

[[record]]
compound = "CCOc1cc(/C=N/c2nc3cc4sc(/N=C/c5ccc(O)c(OCC)c5)nc4cc3s2)ccc1O"
study_system = "SF-268"
category = "false"

